System Name: rat VR1 (Rattus norvegicus, UniProt O35433)
Sequence (O35433 whole entry): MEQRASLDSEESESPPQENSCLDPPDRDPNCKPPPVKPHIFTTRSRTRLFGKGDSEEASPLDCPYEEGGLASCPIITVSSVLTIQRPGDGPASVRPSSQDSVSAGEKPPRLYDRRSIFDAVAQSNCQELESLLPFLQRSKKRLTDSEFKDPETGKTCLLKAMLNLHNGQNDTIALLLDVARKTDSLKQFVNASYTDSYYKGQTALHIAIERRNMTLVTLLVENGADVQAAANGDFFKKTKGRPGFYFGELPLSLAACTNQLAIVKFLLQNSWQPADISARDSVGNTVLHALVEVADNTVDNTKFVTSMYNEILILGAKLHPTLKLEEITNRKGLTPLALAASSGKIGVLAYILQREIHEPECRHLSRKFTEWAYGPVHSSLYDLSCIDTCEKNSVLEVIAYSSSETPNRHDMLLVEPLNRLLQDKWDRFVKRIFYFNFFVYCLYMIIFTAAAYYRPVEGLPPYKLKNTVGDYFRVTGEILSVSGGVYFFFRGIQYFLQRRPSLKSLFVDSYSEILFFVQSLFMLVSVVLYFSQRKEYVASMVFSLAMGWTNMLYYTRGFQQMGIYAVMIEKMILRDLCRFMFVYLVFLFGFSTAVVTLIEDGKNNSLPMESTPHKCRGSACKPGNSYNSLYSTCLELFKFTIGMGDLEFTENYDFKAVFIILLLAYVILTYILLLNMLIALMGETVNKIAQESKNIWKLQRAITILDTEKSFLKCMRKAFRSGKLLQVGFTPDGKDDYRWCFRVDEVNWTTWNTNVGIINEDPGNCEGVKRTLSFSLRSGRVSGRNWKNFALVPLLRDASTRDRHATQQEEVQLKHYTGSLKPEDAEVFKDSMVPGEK
Measurement Notes: Fluorescence assay, rat VR1
Condition: in vitro, VR1 ion channel block
Quantity Measured: pIC50
Entry type: numeric. Quantity: pIC50, the -log10 of concentration in molar units.

### Prompt // fetch pIC50 given entry `CC(C)(C)c1nc2[nH]c(=S)[nH]c(=O)c2cc1-c1ccc(Cl)cc1`
### Response 7.72

====

System Name: human vanilloid receptor 1 (hVR1) ion channels (Homo sapiens)
Construct: expressed in transfected cells; host or cells: CHO cells
Sequence (Q8NER1 whole entry): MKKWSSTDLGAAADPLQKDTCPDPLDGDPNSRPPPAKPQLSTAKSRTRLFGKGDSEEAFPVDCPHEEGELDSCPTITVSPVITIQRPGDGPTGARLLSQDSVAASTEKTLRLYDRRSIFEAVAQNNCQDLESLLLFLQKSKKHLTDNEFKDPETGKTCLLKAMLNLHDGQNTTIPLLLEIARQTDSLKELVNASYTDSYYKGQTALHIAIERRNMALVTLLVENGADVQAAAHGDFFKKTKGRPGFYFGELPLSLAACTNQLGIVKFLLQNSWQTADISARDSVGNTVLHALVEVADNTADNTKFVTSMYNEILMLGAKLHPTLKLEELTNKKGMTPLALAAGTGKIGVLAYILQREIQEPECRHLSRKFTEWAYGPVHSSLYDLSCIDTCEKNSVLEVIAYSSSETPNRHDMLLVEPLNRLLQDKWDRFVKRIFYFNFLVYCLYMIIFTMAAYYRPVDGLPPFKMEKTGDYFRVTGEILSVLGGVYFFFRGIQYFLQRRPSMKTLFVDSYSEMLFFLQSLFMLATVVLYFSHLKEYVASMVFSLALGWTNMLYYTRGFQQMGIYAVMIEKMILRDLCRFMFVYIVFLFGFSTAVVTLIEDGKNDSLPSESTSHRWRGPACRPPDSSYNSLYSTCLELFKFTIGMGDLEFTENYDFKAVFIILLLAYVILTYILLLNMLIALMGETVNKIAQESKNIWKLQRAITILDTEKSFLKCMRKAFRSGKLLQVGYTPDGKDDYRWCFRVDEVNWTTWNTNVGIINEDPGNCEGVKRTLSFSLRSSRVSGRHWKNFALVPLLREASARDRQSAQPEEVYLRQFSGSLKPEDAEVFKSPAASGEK
Measurement Notes: Fluorescence assay (calcium-sensitive dye) in CHO cells expressing human vanilloid receptor 1 ion channels, stimulated by capsaicin or low pH
Assay type: cell-based
Condition: in vitro, VR1 ion channel block
Quantity Measured: IC50 (nM)
Response body: numeric value in nM, unit text excluded.

### Prompt Report measured IC50; entry is `CC(C)(C)c1nc2[nH]c(=S)[nH]c(=O)c2cc1-c1ccc(Cl)cc1`
### Response 65.1
